- ASSAYED_SYSTEM: Cannabinoid receptor 2 (Homo sapiens)
- Sequence (P34972 whole entry): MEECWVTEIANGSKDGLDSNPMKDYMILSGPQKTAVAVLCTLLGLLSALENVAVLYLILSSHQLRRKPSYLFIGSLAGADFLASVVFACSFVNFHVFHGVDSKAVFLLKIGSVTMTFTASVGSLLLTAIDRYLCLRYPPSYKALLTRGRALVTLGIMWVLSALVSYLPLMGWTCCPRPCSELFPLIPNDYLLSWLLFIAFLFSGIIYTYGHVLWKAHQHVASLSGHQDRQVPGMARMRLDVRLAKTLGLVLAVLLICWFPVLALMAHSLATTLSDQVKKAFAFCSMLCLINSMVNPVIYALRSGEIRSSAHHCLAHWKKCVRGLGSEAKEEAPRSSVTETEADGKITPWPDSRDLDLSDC
- ASSAY_INFO: Displacement of [3H]CP-55940 from human recombinant CB2 receptor expressed in HEK293 cells
- Assay type: cell-based
- ASSAY_SETUP: read-out: Ki
ASSAY_READOUT: Ki (nM)
Answers are plain numbers, in nM.

Consider the following illustrative entries.
- COMPOUND: "CC1(C(=O)c2cn(CC3CCOCC3)c3ccccc23)CC1(Cl)Cl (configuration not stated)"
  UNIT_INFO: "nM"
  Ki: 181
- COMPOUND: "O=C(c1cn(CC2CCOCC2)c2ccccc12)C1CCCC1"
  UNIT_INFO: "nM"
  Ki: 11

# map each compound to its Ki
1. CC1(C)C(C(=O)c2cn(CCc3ccccn3)c3ccccc23)C1(C)C
2. O=C(c1cn(CC2CCOCC2)c2ccccc12)[C@@H]1CC12CCCCC2
3. CC1(C)C(C(=O)c2cn(CCCCCO)c3ccccc23)C1(C)C
4. COC(=O)CCn1cc(C(=O)C2C(C)(C)C2(C)C)c2ccccc21
5. CC1(C)C(C(=O)c2cn(CCn3cccc3)c3ccccc23)C1(C)C
6. CC1(C)C(C(=O)c2cn(CCC(N)=O)c3ccccc23)C1(C)C

1. 68
2. 2.6
3. 0.71
4. 2.9
5. 1.8
6. 220

----------
- ASSAYED_SYSTEM: Cannabinoid receptor 2 (Homo sapiens)
- ASSAY_INFO: Agonist activity at human recombinant CB2 receptor expressed in HEK293 cells coexpressing Galphaq/o5 assessed as calcium mobilization by FLIPR assay
- Type: functional, cell-based
ASSAY_READOUT: pEC50
Numbers only, as −log10 of the molar value.

Consider the following illustrative entries.
- MOLECULE: "CC1(C)C(C(=O)c2cn(Cc3ccncc3)c3ccccc23)C1(C)C"
  ASSAY_READOUT: "pEC50"
  QUANTITATIVE_READOUT: 7.52
- MOLECULE: "O=C(c1cn(CCN2CCOCC2)c2ccccc12)C1CCCCCC1"
  ASSAY_READOUT: "pEC50"
  QUANTITATIVE_READOUT: 7.51
- MOLECULE: "O=C(c1cn(CC2CCOCC2)c2ccccc12)[C@@H]1CC12CCCCC2"
  ASSAY_READOUT: "pEC50"
  QUANTITATIVE_READOUT: 7.85
- MOLECULE: "CC1(C)C(C(=O)c2cn(CCCN3CCOCC3)c3ccccc23)C1(C)C"
  ASSAY_READOUT: "pEC50"
  QUANTITATIVE_READOUT: 5.82

# map each molecule to its pEC50
1. O=C(c1cn(CCN2CCOCC2)c2ccccc12)C1CCCCC1
2. O=C(c1cn(CCN2CCOCC2)c2ccccc12)C12CC3CC(CC1C3)C2

[7.07, 7.17]

----------
- ASSAYED_SYSTEM: Cannabinoid receptor 1 (Rattus norvegicus)
- ASSAY_INFO: Agonist activity at rat CB1 receptor assessed as inhibition of forskolin-induced cAMP production by cell based assay relative to CP-55940
- Format: functional
- Design: scale not given: the % may be the effect or the level left
Field: Activity. Provide a value for each of the molecules that follow.

- TEST_SMILES: "CC1(C)C(C(=O)c2cn(CCN3CCOCC3)c3ccccc23)C1(C)C"
  ASSAYED_SYSTEM: "Cannabinoid receptor 1 (Rattus norvegicus)"
  RESULT: "97%"
- TEST_SMILES: "Cc1c(C(=O)c2cccc3ccccc23)c2cccc3c2n1[C@H](CN1CCOCC1)CO3"
  ASSAYED_SYSTEM: "Cannabinoid receptor 1 (Rattus norvegicus)"
  RESULT: "108%"
- TEST_SMILES: "CC1(C)C(C(=O)c2cn(CC3CCOCC3)c3ccccc23)C1(C)C"
  ASSAYED_SYSTEM: "Cannabinoid receptor 1 (Rattus norvegicus)"
  RESULT: "91%"

Proceed to the following item.
Need Activity, item "CC1(C)C(C(=O)c2cn(CCCCO)c3ccccc23)C1(C)C" 113%

// data source = ChEMBL document CHEMBL1156767
